B1: Hairpin Ribozyme (parent)
chain: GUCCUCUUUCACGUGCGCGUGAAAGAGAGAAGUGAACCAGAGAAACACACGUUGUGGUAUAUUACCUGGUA

Variants of: B1
Procedure Details: self-cleavage, relative activity (ratio to wild type); higher = more cleavage; co-transcriptional
Lab note: class by self-cleavage, see low interval = under 0.2, middle interval = from 0.2 up to 0.3, high interval = 0.3 and over

{"Entry Sequence": "GUCGUCUUUCACGUGCGCGUGAAAGAGAGAAGUGAACCAGAGAAACACACGUUGUGGUAUAUUACCUGGUA", "Label Class": "middle interval"}
{"Entry Sequence": "GUCCUCUUUCACGUGCGCGUGAAAGAGAGAAGUCAACCAGAGAAACACACGUUGCGGUAUAUUACCUGGUA", "Label Class": "high interval"}
{"Entry Sequence": "GUCCUCUUUCACGUCCGGGUGAAAGAGAGAAGUGAACCAGAGAAACACACGUUGUGGUAUAUUACCUGGUA", "Label Class": "high interval"}
{"Entry Sequence": "GUCCUCUUUCACGUGCGCGUGAAAGAGAGAAGUGAACCAGAGAAACACACGUUGUGGUAUAUUUCCUCGUA", "Label Class": "middle interval"}
{"Entry Sequence": "GUCCUCUUUAACGUGCGCGUGAAACAGAGAAGUGAACCAGAGAAACACACGUUGUGGUAUAUUACCUGGUA", "Label Class": "middle interval"}
{"Entry Sequence": "GUCCUCUUUCACGUGCGCAUGAAAGAGAGAAGUGAACCAGAGAAACACAGGUUGUGGUAUAUUACCUGGUA", "Label Class": "middle interval"}
{"Entry Sequence": "GUCCUCUUUCACGUGCGCGUGAAUGAGAGAAGUCAACCAGAGAAACACACGUUGUGGUAUAUUACCUGGUA", "Label Class": "high interval"}
{"Entry Sequence": "GUCCUCUGUCACGUGCGCGUGAAAGAGAGAAGUGAACCAGAGAAACACACCUUGUGGUAUAUUACCUGGUA", "Label Class": "high interval"}
{"Entry Sequence": "GUCCUCUUUCACUUUCGCGUGAAAGAGAGAAGUGAACCAGAGAAACACACGUUGUGGUAUAUUACCUGGUA", "Label Class": "high interval"}
{"Entry Sequence": "GUCCUCUUUCACGUGCGCGUGAAAGAGAGAGGUGAACCAGAGAAACACACGUUGUGGUAUCUUACCUGGUA", "Label Class": "low interval"}
{"Entry Sequence": "GUCCUCUUUCACGUGCGCGUGAAAGAGAGAAGUGAACCAGAGAAACACACGUUGUGGUAUCUAACCUGGUA", "Label Class": "low interval"}
{"Entry Sequence": "GUCCUCUUUCACGUUCGCGUGAAAGAGAGAAGUGAACCAGAGAAACACACGUUGUGGUAUAUAACCUGGUA", "Label Class": "low interval"}
{"Entry Sequence": "GUCCUCUUUCACGUGCGCGUGAAAGAGAGAAGUGAACCAGAGAAAAACACGUUGUGGUAUAUUACCUGGUC", "Label Class": "high interval"}
{"Entry Sequence": "GUCCUCUUUCACGUGCGCGUGAAAGAGAGAAGUGAACCAGAGAGACACACGUUGUGGUAUAUUCCCUGGUA", "Label Class": "low interval"}
{"Entry Sequence": "GUCCUCUUUCACGUCCGCGUGAAAGAGAGAAGUGAACCAGAGAAACACACGUUGUCGUAUAUUACCUGGUA", "Label Class": "low interval"}
{"Entry Sequence": "GUCCUCUUUCACGUGCGCGUGAAAGAGAGAAGUGAACCAGAGAAACACACGUUGUGGUAUAGUACCCGGUA", "Label Class": "low interval"}
{"Entry Sequence": "GUCCUCUUUCACGUGUGCGUGAAAGAGAGAAGUGAACCAGAGAAACACACGUUGUGGUAAAUUACCUGGUA", "Label Class": "high interval"}
{"Entry Sequence": "GUCCUCUUUCACGUGCGUGUGAAAGAGAGAAGUGAACCAGAGAAACACACGUGGUGGUAUAUUACCUGGUA", "Label Class": "high interval"}
{"Entry Sequence": "GUCCUCUUUCACGUGCGCGUGAAAGAGAGAAGUGUACCAGAGAAACACACGUUGGGGUAUAUUACCUGGUA", "Label Class": "middle interval"}
{"Entry Sequence": "UUUCUCUUUCACGUGCGCGUGAAAGAGAGAAGUGAACCAGAGAAACACACGUUGUGGUAUAUUACCUGGUA", "Label Class": "middle interval"}
{"Entry Sequence": "GUCCUCUAUCACGUGCGCGUGAAAGAGAGAAGUGAACCAGAGAAACACACGUUGAGGUAUAUUACCUGGUA", "Label Class": "low interval"}
